These data points were gathered from PubChem BioAssay (NCI).

Consider the following compounds and their measured growth inhibition readings.
assay: NCI Yeast Anticancer Drug Screen. Data for the mlh1 rad18 strain (AID 175); details: S. cerevisiae mlh1 rad18 strain growth inhibition; at 50.0 µM; stronger effect = higher value
Compounds without any hit were thinned out: in the full panel of roughly 79,000, 15% have a hit.
Kindly answer with a numeric value in %, unit omitted.

CC(C)CCOC(=O)c1ccccc1OC(=O)Nc1ccc(Cl)cc1[N+](=O)[O-]: -11.3

I'd like to know its growth inhibition. The compound in question is Cn1c(=O)ccc2c(=O)c3c(ccc4ccccc43)oc21
-23.9

I'd like to know its growth inhibition. The compound in question is C[Si](C)(C)Oc1cc(N=NNC2=CC(=O)c3ccccc3C2=O)c(O)c2ccccc12
5.15

I'd like to know its growth inhibition. The compound in question is CCOC1CCCCO1 (stereo not drawn)
-8.1

I'd like to know its growth inhibition. The compound in question is Cc1ccccc1S(=O)(=O)OC1NS(=O)(=O)c2ccccc21 (stereo not drawn)
2.9

I'd like to know its growth inhibition. The compound in question is CCOC(=O)Nc1cc2c(c(N)n1)N=C(c1ccc(Cl)cc1Cl)CN2
-8.45

I'd like to know its growth inhibition. The compound in question is CCC(=O)c1cc2c(cc1O)CC(C(=O)CC)c1ccccc1-2 (stereo not drawn)
12.4

I'd like to know its growth inhibition. The compound in question is ON(C=Nc1ccccc1)c1ccccc1
7.05
